test system: Nrf2 translation (entire Nrf2 ORF mRNA); test: Western blot of Nrf2 translation in HEK 293T cells transfected with Nrf2 construct lacking amino acids 17-32; type: cell-based; settings: FIG. 3C / FIG. 4; HEK 293T cells, Nrf2 construct lacking amino acids 17-32 (no Keap1-mediated degradation)
quantity: Nrf2 translation (Nrf2 protein expression by blot)

INSERT INTO results (compound, reportedresult) VALUES
  ('CC(C)(C)c1cc(O)ccc1O', 'no effect'),
  ('C[S+]([O-])CCCCN=C=S (stereo not drawn)', 'no effect');
